Target: T1, CRH (CT-Biotin) (human and mouse, biotin on the added C-terminal K (-K-Biotin))
T1 construct: also called Peptide 4 (CRH-Biotin); C-terminally biotinylated corticotropin-releasing hormone
T1 peptide: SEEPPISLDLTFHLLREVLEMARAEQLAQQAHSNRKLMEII
Assay: ELISA, C-terminally biotinylated CRH on streptavidin-coated plate
pEC50: −log10 of the molar value.

binder	pEC50
PR302339 (antibody, human IgG1, kappa, V domains shown, Mouse variable domains, expressed recombinantly with human IgG1 wildtype Fc; also called Series 9 mAb) VH: EVKLVESGGGLVKPGGSLKLSCAASGFTFSSYALSWVRQTPEKRLEWVASIRSGGTTYYPDSVKGRFTISRDNARNILYLQMSSLRSEDTAIYYCTRGIDWGQGTLVTVSA VL: NIVMTQTPKFLLVSAGDRVTITCKASQSVNNDVAWYQQKPGQSPKLLIYYASNRYTGVPDRFTGSGYGTDFTFTISTVQAEDLAVYFCQQDYSSWTFGGGTKLEIKR	10.74
PR302324 (antibody, human IgG1, kappa, V domains shown, Mouse variable domains, expressed recombinantly with human IgG1 wildtype Fc; also called Series 10 mAb) VH: EVQLQQSGPELVKPGASVKMSCKASGYTFTDYFMKWVKQSHGGSLEWIGVISPNNGDTFYNQKFKGKATLTVDKSSSTAFMQLNSLTSEDSAVYSCARGTDRALFAYWGQGTLVTVSA VL: DVLMTQTPLSLPVSLGDQASISCRSSQSIVHSDGNTYLEWYLQRPGQSPKLLIYKVSNRFSGVPDRFSGSGSGTDFTLKISRVGAEDLGVYYCFQGSHIPWTFGGGTKLEVKR	10.80
PR302341 (antibody, human IgG1, kappa, V domains shown, Mouse variable domains, expressed recombinantly with human IgG1 wildtype Fc; also called Series 10 mAb) VH: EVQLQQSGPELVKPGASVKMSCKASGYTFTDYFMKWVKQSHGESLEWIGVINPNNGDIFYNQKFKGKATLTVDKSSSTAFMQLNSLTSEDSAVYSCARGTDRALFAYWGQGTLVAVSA VL: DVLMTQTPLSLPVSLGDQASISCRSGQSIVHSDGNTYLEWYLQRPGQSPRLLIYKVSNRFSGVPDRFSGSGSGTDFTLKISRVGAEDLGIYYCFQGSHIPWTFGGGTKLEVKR	10.77
PR004290 (antibody, human IgG1, kappa, V domains shown, Expressed recombinantly with human IgG1 wildtype Fc; also called Hybridoma Clone 28b3; Series 1 mAb) VH: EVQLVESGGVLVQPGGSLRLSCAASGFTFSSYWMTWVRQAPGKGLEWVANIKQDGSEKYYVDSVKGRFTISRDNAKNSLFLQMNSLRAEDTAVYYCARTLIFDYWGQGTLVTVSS VL: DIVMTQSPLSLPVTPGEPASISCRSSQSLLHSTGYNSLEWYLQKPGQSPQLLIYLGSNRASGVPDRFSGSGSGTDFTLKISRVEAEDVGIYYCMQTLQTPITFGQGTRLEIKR	10.49
PR302315 (antibody, human IgG1, kappa, V domains shown, Mouse variable domains, expressed recombinantly with human IgG1 wildtype Fc; also called Series 8 mAb) VH: DVQLVESGGGLMQPGGSRKLSCVASGFTFSSFGMHWVRQAPEKGLEWVAYISSGSSIIYYADTVKGRFTISRDNPKNILFLQMTSLRSEDTAMYYCARDITTATFAYWGQGTLVTVSA VL: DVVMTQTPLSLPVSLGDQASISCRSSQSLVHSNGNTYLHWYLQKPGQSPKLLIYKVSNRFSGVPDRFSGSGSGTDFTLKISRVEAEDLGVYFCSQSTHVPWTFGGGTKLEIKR	11.10
